measurement target: TRPML3 (Homo sapiens, UniProt Q8TDD5)
Construct: expressed in transfected cells
Sequence (Q8TDD5 1-553): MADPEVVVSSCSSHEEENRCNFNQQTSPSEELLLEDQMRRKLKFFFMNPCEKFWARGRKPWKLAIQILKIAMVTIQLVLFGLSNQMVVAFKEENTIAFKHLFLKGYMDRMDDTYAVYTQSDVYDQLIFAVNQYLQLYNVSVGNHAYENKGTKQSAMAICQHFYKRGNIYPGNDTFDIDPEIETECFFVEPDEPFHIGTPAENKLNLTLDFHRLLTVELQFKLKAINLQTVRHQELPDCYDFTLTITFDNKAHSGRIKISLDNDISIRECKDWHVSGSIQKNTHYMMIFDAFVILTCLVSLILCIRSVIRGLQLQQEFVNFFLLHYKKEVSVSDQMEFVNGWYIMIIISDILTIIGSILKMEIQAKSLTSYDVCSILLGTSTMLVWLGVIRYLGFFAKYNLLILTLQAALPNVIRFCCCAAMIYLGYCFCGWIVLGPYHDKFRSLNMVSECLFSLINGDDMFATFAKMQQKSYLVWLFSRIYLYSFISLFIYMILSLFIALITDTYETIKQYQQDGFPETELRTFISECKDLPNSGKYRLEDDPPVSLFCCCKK
test summary: Fluorescent TRPML3 assay (performed as for TRPML1, substituting the TRPML3 subtype)
Type: cell-based
condition set: fluorescent calcium assay
Recorded EC50 by entry

- C[C@@H]1CN(C(=O)OC(C)(C)C)CCN1c1ncnc2c1c(C1CC1)cn2-c1cccc(OC(F)F)c1: 100 to 500 nM
- COc1cncc(-n2cc(-c3ccccc3F)c3c(N4CCN(C(=O)OC(C)(C)C)C[C@@H]4C)ncnc32)c1: 500 to 2000 nM
- C[C@@H]1CN(c2ncnc3c2c(N2CCC2)cn3-c2cccc(Cl)c2)[C@@H](C)CN1C(=O)OC(C)(C)C: < 100 nM
- C[C@H]1CN(C(=O)OC(C)(C)C)CCN1c1ncnc2c1c(-c1ccncc1)cn2-c1cc(C#N)ccn1: < 100 nM
- CCOC(=O)N1C[C@H](C)N(c2ncnc3c2c(C2CC2)cn3-c2cccc(Cl)c2)[C@@H](C)C1: 100 to 500 nM

# context switch: different molecule, same EC50
Asked: State EC50 on TRPML3 (Homo sapiens, UniProt Q8TDD5). Entry: C[C@H]1CN(C(=O)OC(C)(C)C(F)(F)F)CCN1c1ncnc2c1c(C1CC1)cn2-c1cccc(Cl)c1
Given back: < 100 nM

###

Recorded EC50 by entry
measurement target: TRPML1 (Homo sapiens)
Sequence (Q9GZU1 whole entry L15A/L16A/L577A/L578A, form open): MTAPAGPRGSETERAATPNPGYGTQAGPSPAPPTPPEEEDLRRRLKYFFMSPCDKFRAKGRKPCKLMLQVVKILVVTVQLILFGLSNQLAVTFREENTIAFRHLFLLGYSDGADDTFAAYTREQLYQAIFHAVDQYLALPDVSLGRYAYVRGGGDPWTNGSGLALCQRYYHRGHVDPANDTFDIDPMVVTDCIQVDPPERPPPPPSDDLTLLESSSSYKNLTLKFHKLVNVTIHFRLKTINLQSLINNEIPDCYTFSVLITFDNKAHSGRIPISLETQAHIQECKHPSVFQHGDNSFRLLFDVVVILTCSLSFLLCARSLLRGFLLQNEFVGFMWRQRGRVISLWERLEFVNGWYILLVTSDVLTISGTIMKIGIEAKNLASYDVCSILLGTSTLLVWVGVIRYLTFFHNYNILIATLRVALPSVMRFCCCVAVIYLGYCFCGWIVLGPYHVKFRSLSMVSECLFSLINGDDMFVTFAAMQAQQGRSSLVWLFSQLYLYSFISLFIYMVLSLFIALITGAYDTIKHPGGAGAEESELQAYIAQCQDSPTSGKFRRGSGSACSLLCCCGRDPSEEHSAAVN
test summary: Fluorescent TRPML1 assay (Fluo4-AM calcium fluorescence in doxycycline-induced HEK-293 Trex cells)
Type: cell-based
condition set: fluorescent calcium assay

// known answers, use as guide
- C[C@H]1CN(C(=O)OC(C)(C)C)CCN1c1ncnc2c1c(-c1cncnc1)cn2-c1cccc(C#N)c1: 500 to 2000 nM
- C[C@H]1CN(C(=O)OC(C)(C)C)CCN1c1ncnc2c1c(N1CCC1)cn2-c1cccc(Cl)c1: < 100 nM
- COc1cc(C#N)cc(-n2cc(C3CC3)c3c(N4CCN(C(=O)OC(C)(C)C)C[C@@H]4C)ncnc32)c1: 500 to 2000 nM
- Cc1cc(-n2cc(-c3ccccc3F)c3c(N4CCN(C(=O)OC(C)(C)C)C[C@@H]4C)ncnc32)cc(C#N)n1: < 100 nM
- Cc1cncc(-n2cc(C3CC3)c3c(N4CCN(C(=O)OC(C)(C)C)[C@@H](C)C4)ncnc32)c1 (single isomer, unassigned): 100 to 500 nM

Asked: Identify measured EC50 corresponding to Cc1cc(C#N)cc(-n2cc(C3CC3)c3c(N4CCN(C(=O)OC(C)(C)C)C[C@@H]4C)ncnc32)n1
Given back: 100 to 500 nM

Asked: Identify measured EC50 corresponding to C[C@@H]1CN(C(=O)OC(C)(C)C)CCN1c1ncnc2c1c(C1CCCC1)cn2-c1cccc(Cl)c1
Given back: 100 to 500 nM

###

Recorded EC50 by entry
measurement target: TRPML1 (Homo sapiens)
test summary: Fluorescent TRPML1 assay (Fluo4-AM calcium fluorescence in doxycycline-induced HEK-293 Trex cells)
Assay type: cell-based
condition set: fluorescent calcium assay

// known answers, use as guide
* Cc1ccc(Cl)cc1-n1cc(-c2ccccn2)c2c(N3CCN(C(=O)OC(C)(C)C)CC3C)ncnc21 (stereo not shown) | 0.1 to 0.5 µM
* C[C@H]1CN(C(=O)OC(C)(C)C(F)(F)F)CCN1c1ncnc2c1c(-c1ccccn1)cn2-c1cccc(Cl)c1 | < 0.1 µM
* C[C@H]1CN(C(=O)OC(C)(C)C)CCN1c1ncnc2c1c(N1CCC[C@@H]1CO)cn2-c1cccc(Cl)c1 | 0.1 to 0.5 µM

# context switch: different molecule, same EC50
Asked: Identify measured EC50 corresponding to C[C@H]1CN(C(=O)OC(C)(C)C)CCN1c1ncnc2c1c(C1CC1)cn2-c1cccc(OC(F)F)c1
Given back: < 0.1 µM

###

measurement target: TRPML3 (Homo sapiens)
Construct: expressed in transfected cells
Sequence (Q8TDD5 1-553): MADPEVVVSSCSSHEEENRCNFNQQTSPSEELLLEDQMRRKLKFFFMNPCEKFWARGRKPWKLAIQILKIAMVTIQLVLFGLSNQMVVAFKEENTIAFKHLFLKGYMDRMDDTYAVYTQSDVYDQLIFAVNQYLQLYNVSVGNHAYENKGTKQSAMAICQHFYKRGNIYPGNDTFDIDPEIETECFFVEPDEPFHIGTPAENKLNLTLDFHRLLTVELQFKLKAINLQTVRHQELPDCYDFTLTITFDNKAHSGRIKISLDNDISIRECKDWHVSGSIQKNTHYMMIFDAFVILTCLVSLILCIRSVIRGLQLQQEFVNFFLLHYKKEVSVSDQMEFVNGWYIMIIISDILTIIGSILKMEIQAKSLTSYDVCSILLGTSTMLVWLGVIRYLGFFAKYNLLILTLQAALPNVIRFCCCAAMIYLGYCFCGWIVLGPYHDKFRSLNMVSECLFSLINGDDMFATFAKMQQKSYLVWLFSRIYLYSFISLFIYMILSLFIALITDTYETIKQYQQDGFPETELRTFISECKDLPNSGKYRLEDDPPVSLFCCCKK
test summary: Fluorescent TRPML3 assay (performed as for TRPML1, substituting the TRPML3 subtype)
Type: cell-based
condition set: fluorescent calcium assay
pEC50: −log10 of the molar value.
readout name: pEC50

// known answers, use as guide
• C[C@H]1CN(C(=O)OC(C)(C)C)CCN1c1ncnc2c1c(-c1ccccc1F)cn2-c1cc(C#N)ncn1 = > 7.00
• C[C@@H]1CN(c2ncnc3c2c(N2CCC2)cn3-c2cccc(C#N)c2)CCN1C(=O)OC(C)(C)C = > 7.00
• C[C@@H]1CN(c2ncnc3c2c(C2CC2)cn3-c2cc(Cl)cc(Cl)c2)CCN1C(=O)OC(C)(C)C = > 7.00
• CC[C@@H]1CN(c2ncnc3c2c(C2CC2)cn3-c2cc(F)cc(F)c2)CCN1C(=O)OC(C)(C)C = > 7.00
• C[C@@H]1CN(c2ncnc3c2c(-c2ccncc2)cn3-c2cc(F)cc(F)c2)CCN1C(=O)OC(C)(C)C = 6.30 to 7.00

Asked: State pEC50 on TRPML3 (Homo sapiens). Entry: C[C@H]1CN(C(=O)OC(C)(C)C)CCN1c1ncnc2c1c(C1CCC1)cn2-c1cc(C#N)ccn1
Given back: > 7.00

Asked: State pEC50 on TRPML3 (Homo sapiens). Entry: CC(C)(C)OC(=O)N1CCN(c2ncnc3c2c(C2CC2)cn3-c2cc(F)c(F)c(F)c2)CC1
Given back: 6.30 to 7.00

###

measurement target: TRPML3 (Homo sapiens)
Construct: expressed in transfected cells
Sequence (Q8TDD5 1-553): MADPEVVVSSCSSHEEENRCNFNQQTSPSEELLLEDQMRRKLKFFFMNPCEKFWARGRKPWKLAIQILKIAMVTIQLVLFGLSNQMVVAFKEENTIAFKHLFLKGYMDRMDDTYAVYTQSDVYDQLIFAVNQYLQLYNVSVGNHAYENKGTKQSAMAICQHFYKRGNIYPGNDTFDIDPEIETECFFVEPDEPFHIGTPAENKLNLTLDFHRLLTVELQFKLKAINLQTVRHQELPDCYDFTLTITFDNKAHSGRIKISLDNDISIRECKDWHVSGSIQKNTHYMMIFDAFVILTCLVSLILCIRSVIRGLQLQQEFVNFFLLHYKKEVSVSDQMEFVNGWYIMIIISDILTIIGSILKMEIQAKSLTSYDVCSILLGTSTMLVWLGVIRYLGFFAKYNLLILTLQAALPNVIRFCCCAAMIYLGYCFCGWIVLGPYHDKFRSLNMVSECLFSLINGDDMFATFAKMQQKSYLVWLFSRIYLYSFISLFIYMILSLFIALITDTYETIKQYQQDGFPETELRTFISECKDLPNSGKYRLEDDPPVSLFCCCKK
test summary: Fluorescent TRPML3 assay (performed as for TRPML1, substituting the TRPML3 subtype)
Type: cell-based
pEC50: −log10 of the molar value.
Recorded pEC50 by entry

// known answers, use as guide
* CCc1ccnc(-n2cc(C3CC3)c3c(N4C[C@@H](C)N(C(=O)OC(C)(C)C)C[C@@H]4C)ncnc32)c1 | > 7.00
* Cc1cn(-c2cccc(C(F)(F)F)c2)c2ncnc(N3CCN(C(=O)OC(C)(C)C)C[C@@H]3C)c12 | > 7.00
* [2H]C([2H])([2H])C(OC(=O)N1C[C@H](C)N(c2ncnc3c2c(C(F)(F)F)cn3-c2cc(C#N)ccn2)C[C@H]1C)(C([2H])([2H])[2H])C([2H])([2H])[2H] | > 7.00
* C[C@@H]1CN(c2ncnc3c2c(C(F)F)cn3-c2cc(C#N)ccn2)[C@@H](C)CN1C(=O)OC1(C(F)(F)F)CCC1 | > 7.00
* C[C@@H]1CN(c2ncnc3c2c(C(F)(F)F)cn3-c2nccc(C#N)n2)[C@@H](C)CN1C(=O)OC(C)(C)C | > 7.00

Asked: Identify measured pEC50 corresponding to C[C@@H]1CN(c2ncnc3c2c(C(F)F)cn3-c2cc(F)ccn2)[C@@H](C)CN1C(=O)OC1(C)CC1
Given back: 6.30 to 7.00

Asked: Identify measured pEC50 corresponding to C[C@@H]1CN(c2ncnc3c2c(C2CC2)cn3-c2cccc(F)c2)[C@@H](C)CN1C(=O)OC1(C)CC1
Given back: 6.30 to 7.00

Asked: Identify measured pEC50 corresponding to C[C@@H]1CN(c2ncnc3c2c(C2CC2)cn3-c2cccc(F)c2)CCN1C(=O)OC(C)(C)C
Given back: > 7.00

Asked: Identify measured pEC50 corresponding to CC(C)c1cn(-c2cc(F)ccn2)c2ncnc(N3C[C@@H](C)N(C(=O)OC(C)(C)C)C[C@@H]3C)c12
Given back: > 7.00

Asked: Identify measured pEC50 corresponding to C[C@@H]1CN(c2ncnc3c2c(C2CCC2)cn3-c2cccc(F)c2)[C@@H](C)CN1C(=O)OC(C)(C)C
Given back: 6.30 to 7.00

Asked: Identify measured pEC50 corresponding to C[C@@H]1CN(c2ncnc3c2c(C(F)F)cn3C2CCCCC2)[C@@H](C)CN1C(=O)OC(C)(C)C
Given back: 6.30 to 7.00

Asked: Identify measured pEC50 corresponding to CC(C)(C)OC(=O)N1CCN(c2ncnc3c2c(C(F)(F)F)cn3-c2cc(C#N)ccn2)C(C)(C)C1
Given back: > 7.00

Asked: Identify measured pEC50 corresponding to C[C@H]1CN(C(=O)OC2(C)CC2)CCN1c1ncnc2c1c(C(F)(F)F)cn2-c1cccc(Cl)c1
Given back: 6.30 to 7.00

Asked: Identify measured pEC50 corresponding to Cc1ccnc(-n2cc(C3CC3)c3c(N4C[C@@H](C)N(C(=O)OC(C)(C)C)C[C@@H]4C)ncnc32)c1
Given back: 6.30 to 7.00
